Below, each entry is listed with its recorded pEC50.
molecular target: Bile acid receptor (Homo sapiens) (UniProt Q96RI1); test: LXR, FXR and VP16 reporter activity, cell-based, luciferase reporter, ROR modulator project, late-stage follow-up (AID 2117); conditions: cell-based luciferase reporter panel, FXR, activation potency
Sequence (Q96RI1 whole entry, looked up): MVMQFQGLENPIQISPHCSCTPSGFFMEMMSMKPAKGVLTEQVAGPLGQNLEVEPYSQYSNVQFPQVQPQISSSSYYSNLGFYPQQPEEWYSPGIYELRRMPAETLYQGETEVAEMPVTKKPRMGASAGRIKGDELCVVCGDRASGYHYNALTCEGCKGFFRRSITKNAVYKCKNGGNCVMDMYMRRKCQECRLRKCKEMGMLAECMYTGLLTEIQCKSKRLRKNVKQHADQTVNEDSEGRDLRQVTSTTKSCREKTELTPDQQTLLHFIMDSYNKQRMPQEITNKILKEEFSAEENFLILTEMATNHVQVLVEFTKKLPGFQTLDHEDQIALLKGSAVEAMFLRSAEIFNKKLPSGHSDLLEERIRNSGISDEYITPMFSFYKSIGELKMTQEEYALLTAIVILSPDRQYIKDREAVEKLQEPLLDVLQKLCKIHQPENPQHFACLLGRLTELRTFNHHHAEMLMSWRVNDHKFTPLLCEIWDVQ
pEC50: −log10 of the molar value.

Recorded results for 4 compounds are shown here.
COc1cccc(S(=O)(=O)Nc2ccc(C(O)(C(F)(F)F)C(F)(F)F)cc2)c1 : < 4.70
CC(C)(C)c1ccc(S(=O)(=O)Nc2ccc(C(O)(C(F)(F)F)C(F)(F)F)cc2)cc1 : < 4.70
O=S(=O)(Nc1ccc(C(O)(C(F)(F)F)C(F)(F)F)cc1)c1ccc(Cl)c2nonc12 : < 4.70
O=S(=O)(Nc1ccc(C(O)(C(F)(F)F)C(F)(F)F)cc1)c1cccc2cccnc12 : < 4.70

Next up:
Find pEC50 (Bile acid receptor (Homo sapiens) (UniProt Q96RI1)) for the entry O=S(=O)(Nc1ccc(C(O)(C(F)(F)F)C(F)(F)F)cc1)c1cccc2ccccc12
4.92
